# system-under-test: Voltage-gated inwardly rectifying potassium channel KCNH2 (Homo sapiens) (UniProt Q12809)
# Sequence (Q12809 whole entry, looked up): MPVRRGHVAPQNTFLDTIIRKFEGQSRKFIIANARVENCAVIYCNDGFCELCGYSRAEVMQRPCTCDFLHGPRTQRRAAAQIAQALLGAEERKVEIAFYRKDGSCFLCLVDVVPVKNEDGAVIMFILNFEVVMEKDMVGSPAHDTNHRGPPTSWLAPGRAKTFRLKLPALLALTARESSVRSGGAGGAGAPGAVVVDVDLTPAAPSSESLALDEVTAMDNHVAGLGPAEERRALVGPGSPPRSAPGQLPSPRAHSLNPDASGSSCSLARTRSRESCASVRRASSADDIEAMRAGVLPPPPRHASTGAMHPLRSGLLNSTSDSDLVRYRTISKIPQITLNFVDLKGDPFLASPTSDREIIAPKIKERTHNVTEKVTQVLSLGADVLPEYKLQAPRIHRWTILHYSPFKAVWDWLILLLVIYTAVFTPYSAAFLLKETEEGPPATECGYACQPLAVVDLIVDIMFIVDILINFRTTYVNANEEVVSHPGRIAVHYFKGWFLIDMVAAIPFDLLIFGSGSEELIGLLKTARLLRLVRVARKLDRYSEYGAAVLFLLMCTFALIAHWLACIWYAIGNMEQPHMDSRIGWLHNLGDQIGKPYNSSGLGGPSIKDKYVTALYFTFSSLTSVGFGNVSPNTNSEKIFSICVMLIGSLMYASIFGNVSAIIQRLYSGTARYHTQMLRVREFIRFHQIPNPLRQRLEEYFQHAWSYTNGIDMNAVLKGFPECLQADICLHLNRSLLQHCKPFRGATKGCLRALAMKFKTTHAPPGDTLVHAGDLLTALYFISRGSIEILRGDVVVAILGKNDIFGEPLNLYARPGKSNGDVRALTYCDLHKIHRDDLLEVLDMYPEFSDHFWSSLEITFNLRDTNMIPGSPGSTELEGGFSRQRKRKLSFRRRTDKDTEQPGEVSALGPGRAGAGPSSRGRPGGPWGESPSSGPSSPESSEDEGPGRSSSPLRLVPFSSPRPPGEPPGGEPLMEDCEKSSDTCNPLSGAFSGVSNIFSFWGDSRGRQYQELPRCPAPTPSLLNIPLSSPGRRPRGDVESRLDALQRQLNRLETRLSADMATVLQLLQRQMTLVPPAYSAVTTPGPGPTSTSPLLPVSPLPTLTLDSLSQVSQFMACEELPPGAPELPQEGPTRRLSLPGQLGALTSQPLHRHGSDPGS
# assay-name: qHTS Assay for Small Molecule Inhibitors of the Human hERG Channel Activity (AID 588834);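 note: lower thallium flux fluorescence means stronger hERG block; nearly all actives have a fitted effect of over 50% in size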
# details: U2OS BacMam hERG, FluxOR thallium flux fluorescence; series mostly up to 46.1 µM
Records with an inconclusive call do not appear. The source made the active and inactive calls. Calls come from the whole dose curve; as a rule, active = well fitted inhibition curve with a large enough effect; inconclusive = small, poorly fitted or top-dose-only effect; inactive = flat fitted curve, though single readings scatter.
Select the matching outcome among active, inactive

NC(Cc1ccc(Cl)cc1)C(=O)O (configuration not stated) = inactive
COc1cc(Cc2cnc(N)nc2N)cc(OC)c1OC = inactive
N[C@@H](COP(=O)(O)O)C(=O)O = inactive
CCNC(=O)N1CCN(CCCC(c2ccc(F)cc2)c2ccc(F)cc2)CC1 = active
NS(=O)(=O)c1cc2c(cc1Cl)NC(C1CC3C=CC1C3)NS2(=O)=O (configuration not stated) = inactive

// param item: `OCCN1CCN(CCCN2c3ccccc3C=Cc3ccccc32)CC1` ; yields the recorded call
active

// param item: `CCCOc1ccccc1-c1nc2n[nH]nc2c(=O)[nH]1` ; yields the recorded call
inactive

// param item: COC(=O)C1=C(C)NC(C)=C(C(=O)OC(C)(C)CN(C)CCC(c2ccccc2)c2ccccc2)C1c1cccc([N+](=O)[O-])c1 (configuration not stated) ; yields the recorded call
active

// param item: `Cc1scc2c1N(C(=O)CN1CCN(C)CC1)c1ccccc1NC2=O` ; yields the recorded call
inactive

// param item: `CN/C(=C\[N+](=O)[O-])NCCSCc1ccc(CN(C)C)o1` ; yields the recorded call
inactive

// param item: `CC(=O)[C@@]1(O)CC[C@H]2[C@@H]3CCC4=CC(=O)CC[C@]4(C)[C@H]3CC[C@@]21C` ; yields the recorded call
inactive

// param item: `Nc1nc(N)c2nc(-c3ccccc3)c(N)nc2n1` ; yields the recorded call
inactive

// param item: `COc1ccc2c(c1OC)C(=O)O[C@@H]2[C@H]1c2c(cc3c(c2OC)OCO3)CCN1C` ; yields the recorded call
inactive

// param item: `Cc1ccc(Cl)c(Nc2ccccc2C(=O)O)c1Cl` ; yields the recorded call
inactive

// param item: `O=C(O)CN(CCN(CC(=O)O)CC(=O)O)CCN(CC(=O)O)CC(=O)O` ; yields the recorded call
inactive

// param item: CNC1(C)C2CCC(C2)C1(C)C (configuration not stated) ; yields the recorded call
inactive

// param item: `CO[C@@]1(NC(=O)CSCC#N)C(=O)N2C(C(=O)O)=C(CSc3nnnn3C)CS[C@@H]21` ; yields the recorded call
inactive

// param item: `CC(=O)Nc1nnc(S(N)(=O)=O)s1` ; yields the recorded call
inactive

###

# system-under-test: Pyruvate kinase (Leishmania mexicana) (UniProt Q27686)
# assay-name: qHTS Validation Assay for Inhibitors of Leishmania Mexicana Pyruvate Kinase (AID 945);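 note: 0% = DMSO only neutral control wells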
# details: purified L. mexicana pyruvate kinase, enzyme activity, E451W mutant enzyme; series mostly up to 57.5 µM
Active and inactive are the calls of the source. Calls come from the whole dose curve; as a rule, active = well fitted inhibition curve with a large enough effect; inconclusive = small, poorly fitted or top-dose-only effect; inactive = no such curve, though single readings can be large or run the other way.
Select the matching outcome among active, inactive

Previously resolved entries follow.
CN=C(NC#N)NCCSCc1nc[nH]c1C = inactive
COCC(=O)O[C@]1(CCN(C)CCCc2nc3ccccc3[nH]2)CCc2cc(F)ccc2[C@@H]1C(C)C = inactive
CCN(CC)CCNC(=O)c1ccc(NC(C)=O)cc1 = inactive

// param item: `CN/C(=C\[N+](=O)[O-])NCCSCc1ccc(CN(C)C)o1` ; yields the recorded call
inactive

// param item: `N[C@@H](COP(=O)(O)O)C(=O)O` ; yields the recorded call
inactive

// param item: `C[C@]12CCC(=O)C=C1CC[C@@H]1[C@@H]2C(=O)C[C@@]2(C)[C@H]1CC[C@]2(O)C(=O)CO` ; yields the recorded call
inactive

###

# system-under-test: Glutathione peroxidase 1 (Homo sapiens) (UniProt P07203)
# Sequence (P07203 whole entry, looked up): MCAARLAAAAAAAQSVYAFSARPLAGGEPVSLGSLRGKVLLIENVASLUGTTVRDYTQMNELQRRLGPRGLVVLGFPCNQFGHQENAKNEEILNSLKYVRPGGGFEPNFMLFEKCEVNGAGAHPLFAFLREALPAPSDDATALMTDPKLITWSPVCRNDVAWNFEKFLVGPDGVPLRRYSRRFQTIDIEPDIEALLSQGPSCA
# assay-name: Primary qHTS Assay for Inhibitors of Recombinant Selenoprotein Glutathione Peroxidase 1 (GPX1) (AID 1845191); note: nearly all actives have a fitted effect of over 65% in size
# details: recombinant GPX1, GR-coupled NADPH fluorescence, 15 min; series mostly up to 48.8 µM
Inconclusive results are not listed. Calls of active or inactive are those of the source. Calls come from the whole dose curve; as a rule, active = well fitted inhibition curve with a large enough effect; inconclusive = small, poorly fitted or top-dose-only effect; inactive = flat fitted curve, though single readings scatter.
readout-label: outcome

A selection of reference data follows.
COC(=O)[C@H]1[C@H]2C[C@@H]3c4[nH]c5cc(OC)ccc5c4CCN3C[C@H]2C[C@@H](OC(=O)c2cc(OC)c(OC)c(OC)c2)[C@@H]1OC = inactive
CCn1nc(C(=O)O)c(=O)c2cc3c(cc21)OCO3 = inactive
Nc1ncn([C@@H]2O[C@H](CO)[C@@H](O)[C@H]2O)c(=O)n1 = inactive
NC(=O)N1c2ccccc2C=Cc2ccccc21 = inactive
CCN(CC)CCNC(=O)c1ccc(NC(C)=O)cc1 = inactive

Hi team, please reply with outcome for each item in this list.
1. Nc1c2c(nc3ccccc13)CCCC2O (stereo unspecified)
2. CCn1ccnc1CC1COc2ccccc2O1 (stereo unspecified)
3. NC(=O)c1cn(Cc2c(F)cccc2F)nn1
4. COc1cc2c(cc1OC)-c1cc(=Nc3c(C)cc(C)cc3C)n(C)c(=O)n1CC2
5. CCN(Cc1ccncc1)C(=O)C(CO)c1ccccc1 (stereo unspecified)
6. OCCN1CCN(CCCN2c3ccccc3C=Cc3ccccc32)CC1

1. inactive
2. inactive
3. inactive
4. inactive
5. inactive
6. inactive

###

# System: DIV14
# assay-name: qHTS profiling for inhibitors of Plasmodium falciparum proliferation (AID 504749); note: nearly all actives have a fitted effect of over 60% in size
# details: P. falciparum in erythrocytes, SYBR Green DNA, 72 h; series mostly up to 28.7 µM
Inconclusive results are not listed. Activity calls are given as the source filed them. Calls follow the shape of the dose curve; as a rule, active = well fitted inhibition curve with a large enough effect; inconclusive = small, poorly fitted or top-dose-only effect; inactive = flat fitted curve, though single readings scatter.
Select the matching outcome among YES (active), NO (inactive)

O=C(CCNNC(=O)c1ccncc1)NCc1ccccc1 = NO

// param item: `CC(C)(Oc1ccc(CCNC(=O)c2ccc(Cl)cc2)cc1)C(=O)O` ; yields the recorded call
NO

// param item: `CCN(CC)CCNC(=O)c1ccc(NC(C)=O)cc1` ; yields the recorded call
NO

// param item: `CCN(CC)CCOCCOC(=O)C1(c2ccccc2)CCCC1` ; yields the recorded call
YES

// param item: `CCN1CCC[C@H]1CNC(=O)c1c(O)c(Cl)cc(Cl)c1OC` ; yields the recorded call
NO

// param item: `NC(=O)c1cn(Cc2c(F)cccc2F)nn1` ; yields the recorded call
NO

###

# assay-name: qHTS for Activators of Parkin Expression: LOPAC Validation Assay (NLuc Reporter) (AID 720572;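 note: 0% = DMSO and 100% = positive control compound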)
# details: Parkin promoter NanoLuc reporter cells, luminescence; series mostly up to 46.1 µM
# Text: Parkin is an E3 ubiquitin ligase localized in the cytosol of cells expressed in many tissues, including brain, skeletal muscle, heart and liver tissues. […] A cell based qHTS in 1536 well format was developed assess modulation of Parkin expression using a neuronal cell line that stably expresses a stably expresses a luminescent coincidence reporter (FLuc and NLuc reporters) behind the Parkin promoter. The LOPAC library is used to validate the assay for quantitative high-throughput screening. […]
Results filed as inconclusive are left out. Calls of active or inactive are those of the source. Calls follow the shape of the dose curve; as a rule, active = well fitted activation curve with a large enough effect; inconclusive = small, poorly fitted or top-dose-only effect; inactive = flat fitted curve, though single readings scatter.
readout-label: Potency

A selection of reference data follows.
NC(=O)N1c2ccccc2C=Cc2ccccc21 = inactive
Cc1ccc(=O)n(-c2ccccc2)c1 = inactive
CCCN1C[C@H](CSC)C[C@@H]2c3cccc4[nH]cc(c34)C[C@H]21 = inactive
NC1=NCC2c3ccccc3Cc3ccccc3N12 (stereo not drawn) = inactive
CCN(CC)CCNC(=O)c1ccc(NC(C)=O)cc1 = inactive

Hi team, please reply with Potency for each item in this list.
1. COc1cc(C(=O)OCCCN2CCCN(CCCOC(=O)c3cc(OC)c(OC)c(OC)c3)CC2)cc(OC)c1OC
2. CCCN(CCC)CCc1cccc2c1CC(=O)N2
3. c1cnc(N2CCN(Cc3ccc4c(c3)OCO4)CC2)nc1

inactive
inactive
inactive

Hi team, please reply with Potency for each item in this list.
1. CC(C)[N+](C)(CCOC(=O)C1c2ccccc2Oc2ccccc21)C(C)C
2. Nc1c2c(nc3ccccc13)CCCC2O (stereo not drawn)

1. inactive
2. inactive

###

# assay-name: Drug repurposing screens with cells derived from glioblastoma tumor samples (AID 1345199); note: % is set by controls: 0 for no effect and ±100 for the full control effect; nearly all actives have a fitted effect of over 40% in size
# details: GBM patient neurospheres viability, ATP luminescence, 48 h; at 46 µM (top of the series); tumour line A
Records with an inconclusive call do not appear.
readout-label: activity, negative = cell killing (%)
Answers are plain numbers, in %.

A selection of reference data follows.
CN(C)C(=O)Oc1ccc[n+](C)c1 = -28.3
O=C(O)CN(CCOCCOCCN(CC(=O)O)CC(=O)O)CC(=O)O = -22.8
CC(=O)OCC1=C(C(=O)O)N2C(=O)[C@@H](NC(=O)Cc3cccs3)[C@H]2SC1 = -19.9

Hi team, please reply with activity, negative = cell killing for each item in this list.
1. Cc1scc2c1N(C(=O)CN1CCN(C)CC1)c1ccccc1NC2=O
2. NC(Cc1ccc(Cl)cc1)C(=O)O (configuration not stated)

1. -22.7
2. -31.7

###

# System: CP260
# assay-name: qHTS profiling for inhibitors of Plasmodium falciparum proliferation (AID 504749); note: nearly all actives have a fitted effect of over 60% in size
# details: P. falciparum in erythrocytes, SYBR Green DNA, 72 h; series mostly up to 28.7 µM
Inconclusive results are not listed. Calls of active or inactive are those of the source. Calls follow the shape of the dose curve; as a rule, active = well fitted inhibition curve with a large enough effect; inconclusive = small, poorly fitted or top-dose-only effect; inactive = flat fitted curve, though single readings scatter.
Select the matching outcome among active, inactive

Previously resolved entries follow.
O=C(CCCN1CCC(O)(c2cccc(C(F)(F)F)c2)CC1)c1ccc(F)cc1 = active
CC(=O)OCC1=C(C(=O)O)N2C(=O)[C@@H](NC(=O)Cc3cccs3)[C@H]2SC1 = inactive
C[N+](C)(C)CCOC(N)=O = inactive
CC(C)(C)c1ccc(C(=O)CCCN2CCC(OC(c3ccccc3)c3ccccc3)CC2)cc1 = active
CC[N+](C)(C)c1cccc(O)c1 = inactive

// param item: `Cc1ccc(S(=O)(=O)NC(=O)NN2CCCCCC2)cc1` ; yields the recorded call
inactive

// param item: `CN(C(=O)CCCOc1ccc2[nH]c(=O)ccc2c1)C1CCCCC1` ; yields the recorded call
inactive
